Reference source for all entries: paper PMC3961306

Listing: %-inhibition of HIPK3 of selected compounds
- SYSTEM_TESTED: panel of more than 300 wild-type and mutant kinases (313 kinase panel) (Homo sapiens)
- TEST_DETAILS: Kinase profiling in a biochemical assay panel (mobility shift assays and ELISA), %-inhibition at 1 μM; selectivity entropy
- EXPERIMENTAL_CONDITIONS: kinase HIPK3; compound at 1 μM
Provide the measurement as a number trailed by its unit.

In the examples that follow, each entry is paired with its recorded %-inhibition of HIPK3.
[[record]]
compound = "CC(C)(C)c1nc(-c2cccc(NS(=O)(=O)c3c(F)cccc3F)c2F)c(-c2ccnc(N)n2)s1 [dabrafenib]"
observed_result = "65%"

[[record]]
compound = "CC(=O)Nc1cccc(-n2c(=O)n(C3CC3)c(=O)c3c(Nc4ccc(I)cc4F)n(C)c(=O)c(C)c32)c1 [trametinib]"
observed_result = "0.0849%"

[[record]]
compound = "CO[C@H]1C[C@@H]2CC[C@@H](C)[C@@](O)(O2)C(=O)C(=O)N2CCCC[C@H]2C(=O)O[C@H]([C@H](C)C[C@@H]2CC[C@@H](OC(=O)C(C)(CO)CO)[C@H](OC)C2)CC(=O)[C@H](C)/C=C(\\C)[C@@H](O)[C@@H](OC)C(=O)[C@H](C)C[C@H](C)/C=C/C=C/C=C/1C [temsirolimus]"
observed_result = "0.626%"

[[record]]
compound = "Cc1cn(-c2cc(NC(=O)c3ccc(C)c(Nc4nccc(-c5cccnc5)n4)c3)cc(C(F)(F)F)c2)cn1 [nilotinib]"
observed_result = "12%"

[[record]]
compound = "COc1cc2nccc(Oc3ccc(NC(=O)C4(C(=O)Nc5ccc(F)cc5)CC4)cc3)c2cc1OC [cabozantinib]"
observed_result = "67%"


Lab note: next compound to report on.
Complete the entry with %-inhibition of HIPK3 for CS(=O)(=O)CCNCc1ccc(-c2ccc3ncnc(Nc4ccc(OCc5cccc(F)c5)c(Cl)c4)c3c2)o1 [lapatinib]
0.236%
